The values you see were collected from ChEMBL document CHEMBL1157446.

molecular target: P2Y purinoceptor 2 (Homo sapiens); assay: Activity at P2Y2 receptor expressed in HEK293 cells at 10 uM to 1 nM; format: cell-based
The source made the active and inactive calls. The calls are words filed in the database; no cut-off is given here.
Assay Endpoint: Activity

The examples below pair each entry with its known result.
# Molecule, Activity
data = [
    ("O=C(NCC12CC3CC(CC(C3)C1)C2)c1ccccc1F", "inactive"),
    ("O=C(NCC12CC3CC(CC(C3)C1)C2)c1ccc(F)cc1", "inactive"),
    ("O=C(NCC12C3C4C5C3C1C5C42)c1ccccc1F (stereo unspecified)", "inactive"),
    ("COc1ccc(Cl)c(C(=O)NCC23C4C5C6C4C2C6C53)c1 (stereo unspecified)", "inactive"),
    ("COc1ccc(Cl)c(C(=O)NCC23CC4CC(CC(C4)C2)C3)c1", "inactive"),
]

Switching to the query record.
Notebook: pull reported Activity for P2Y purinoceptor 2 (Homo sapiens), entry O=C(NCC12C3C4C5C3C1C5C42)c1ccc(F)cc1 (stereo unspecified)
inactive
